- Protocol: in vitro
- Experimental parameters: human, hela cells, % viability
Assay endpoint: viability at 28.5 h, 10 µM (%)

> print(dat)
                                    molecule              assay.endpoint  readout.units  numeric.readout
 1  CN(C)c1ncc(Br)cc1C(=O)NCCNS(=O)(=O)c1ccccc1  viability at 28.5 h, 10 µM              %             89.4
 2  Cc1cc(Br)c(NCC(=O)N/N=C/c2ccc(O)cc2)c(Br)c1  viability at 28.5 h, 10 µM              %              101
 3      Cc1cc(COc2nccnc2N2CCN(CCCC#N)CC2)no1  viability at 28.5 h, 10 µM              %             93.5
 4  CC1CCc2nn(CCNC(=O)C3CCCC3)c(=O)cc2C1 (centres unmarked)  viability at 28.5 h, 10 µM              %             91.1
 5  Cc1nn(CC(=O)N(C)C2CCCCC2)c(=O)c2cc3occc3n12  viability at 28.5 h, 10 µM              %             92.4
 6  COc1ccc(-c2ccc(CN(Cc3ccc4c(c3)OCO4)CC(C)O)cc2)cc1 (centres unmarked)  viability at 28.5 h, 10 µM              %               95
 7  CCN1C(=O)C2(CC(=O)N(CCCN(C)C(=O)c3ccco3)C2=O)c2cc(C)ccc21 (centres unmarked)  viability at 28.5 h, 10 µM              %             94.3
 8  O=C(CC1(O)C(=O)N(Cc2ccccc2Cl)c2ccccc21)c1cc2ccccc2oc1=O (centres unmarked)  viability at 28.5 h, 10 µM              %             96.2
 9            CC1(C)C=Cc2cc(/C(N)=N/O)ccc2O1  viability at 28.5 h, 10 µM              %             96.2
10  Cc1cccc(-c2ncc(NC(=O)Cc3cccc(Oc4ccccc4)c3)nc2-c2ccc(N)cc2)c1  viability at 28.5 h, 10 µM              %             97.2
11            O=C(O)CCSc1nc2ccccc2nc1N1CCCC1  viability at 28.5 h, 10 µM              %             95.7
12       C/C(Cl)=C\CN1C(=O)C(=O)c2cc(C)ccc21  viability at 28.5 h, 10 µM              %             92.3
13  CCC(C)(C)N1CC(=O)N=C1NCCc1ccc(S(N)(=O)=O)cc1  viability at 28.5 h, 10 µM              %             89.6
14    CC(=O)Nc1cccc(Oc2nccnc2-c2ccc(F)cc2)c1  viability at 28.5 h, 10 µM              %             37.1
15  O=C(Nc1ccc([C@@H](O)[C@H]2COCC(=O)N2Cc2ccccn2)cc1)c1cccs1  viability at 28.5 h, 10 µM              %              109
16  O=S1(=O)N=C(N2CCN(Cc3ccc4c(c3)OCO4)CC2)c2ccccc21  viability at 28.5 h, 10 µM              %              104
17       CSc1nsc(SCC(=O)c2ccc(NC(C)=O)cc2)n1  viability at 28.5 h, 10 µM              %             82.3
18  Cc1nn(CC(=O)N2CCCCC2C)c(=O)c2cc3sccc3n12 (centres unmarked)  viability at 28.5 h, 10 µM              %               70
19  CC(C)[C@H]1CN(Cc2ccco2)CCN1C(=O)NCc1ccccc1  viability at 28.5 h, 10 µM              %             99.6
20         COCCNC(=O)Cn1nnc(-c2ccc(OC)cc2)n1  viability at 28.5 h, 10 µM              %             88.1
21  CNc1ncc(CN(C)C(=O)Cn2nc(C)c3ccccc3c2=O)cn1  viability at 28.5 h, 10 µM              %             85.5
22  CC1CCc2c(sc(NC(=S)NC(=O)c3cc4ccccc4o3)c2C#N)C1 (centres unmarked)  viability at 28.5 h, 10 µM              %              101
23  CC1(C)CC(O[Si](C)(C)OC2CC(C)(C)NC(C)(C)C2)CC(C)(C)N1  viability at 28.5 h, 10 µM              %             99.3
24  CC(C(=O)N1c2ccccc2Sc2ccccc21)N1C(=O)c2ccccc2C1=O (centres unmarked)  viability at 28.5 h, 10 µM              %              105
25  O=C(c1[nH]c2ccccc2c1NS(=O)(=O)Cc1ccccc1)N1CCOCC1  viability at 28.5 h, 10 µM              %             99.5
26     Cc1cccc(-c2nnc(SCC3CC3)n2CC2CCCCC2)c1  viability at 28.5 h, 10 µM              %             87.7
27  O=C(O)c1ccc(CNC(=S)Nc2ccc([N+](=O)[O-])cc2)cc1  viability at 28.5 h, 10 µM              %             92.9
28        O=S(=O)(Nc1ccc2[nH]ccc2c1)c1cccnc1  viability at 28.5 h, 10 µM              %               71
29  Cc1ccc2c(c1)C1(CC(=O)N(CC(=O)O)C1=O)C(=O)N2C (centres unmarked)  viability at 28.5 h, 10 µM              %             96.8
30  Cn1cc(CN2CCC(CNc3ccccn3)C2)cn1 (centres unmarked)  viability at 28.5 h, 10 µM              %              101
31  CC(Sc1ncc(-c2ccc(F)cc2)n1Cc1ccccc1)C(=O)NC1CC1 (centres unmarked)  viability at 28.5 h, 10 µM              %              108
32  C(=N\Nc1ccc2nn(-c3ccccc3)nc2c1)/c1c[nH]c2ccccc12  viability at 28.5 h, 10 µM              %             91.6
33  Cc1cc(C(=O)N2CCCCCC2c2c(Cl)cnn2C)on1 (centres unmarked)  viability at 28.5 h, 10 µM              %             99.3
34  C=CCn1c(SCC(=O)N2CCN(c3ccccc3)CC2)nnc1-c1ccc(N)cc1  viability at 28.5 h, 10 µM              %             99.8
35  Cc1c(NC(=O)c2ccc3c(c2)C(=O)N(Cc2ccco2)C3=O)cccc1C(=O)O  viability at 28.5 h, 10 µM              %             92.9
36    c1ccc(CCNc2cc(-c3cccc4ccccc34)ncn2)nc1  viability at 28.5 h, 10 µM              %             94.5
37         O=C(CSc1nc(O)cc(O)n1)Nc1ccc(I)cc1  viability at 28.5 h, 10 µM              %              103
38   Nc1ncc(-c2cccc(O)c2)nc1N1CCC(C(=O)O)CC1  viability at 28.5 h, 10 µM              %             85.3
